assayed.target: human dopamine D1 receptor (Homo sapiens)
Sequence (P21728 whole entry): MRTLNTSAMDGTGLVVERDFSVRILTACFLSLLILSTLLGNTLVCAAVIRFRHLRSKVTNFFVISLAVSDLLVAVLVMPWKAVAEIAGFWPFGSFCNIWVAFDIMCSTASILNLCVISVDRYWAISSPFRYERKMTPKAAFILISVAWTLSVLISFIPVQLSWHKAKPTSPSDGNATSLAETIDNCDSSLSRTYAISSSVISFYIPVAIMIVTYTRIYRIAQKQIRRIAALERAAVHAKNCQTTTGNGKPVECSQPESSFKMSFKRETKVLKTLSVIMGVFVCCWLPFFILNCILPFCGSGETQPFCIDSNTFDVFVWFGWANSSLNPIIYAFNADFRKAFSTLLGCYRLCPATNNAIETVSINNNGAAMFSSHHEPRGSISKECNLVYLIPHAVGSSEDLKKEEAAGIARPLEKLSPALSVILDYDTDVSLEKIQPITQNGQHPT
procedure.details: Human dopamine D1 receptor radioligand binding assay (Eurofins)
assay.context: 10 μM; [3H]SCH-23390 binding; Eurofins Discovery
experimental.endpoint: % Inhibition at 10 μM D1

>>> value_measured("Cc1ccc(S(=O)(=O)N2CC3(CCN(Cc4c[nH]c5cc(F)ccc45)CC3)C2)cc1")
"47%"
>>> value_measured("Cc1ccccc1C(=O)N1CC2(CCN(Cc3c[nH]c4cc(F)ccc34)CC2)C1")
"9%"
>>> value_measured("O=C(c1ccc(Cl)cc1Cl)N1CC2(CCN(Cc3c[nH]c4cc(F)ccc34)CC2)C1")
"21%"
>>> value_measured("Cc1ccc(C(=O)N2CC3(CCN(Cc4c[nH]c5cc(F)ccc45)CC3)C2)cc1C")
"35%"
>>> value_measured("Cc1cccc(C(=O)N2CC3(CCN(Cc4c[nH]c5cc(F)ccc45)CC3)C2)c1")
"10%"
>>> value_measured("O=C(c1ccc2c(c1)OCO2)N1CC2(CCN(Cc3c[nH]c4cc(F)ccc34)CC2)C1")
"16%"
>>> value_measured("Cc1ccc(C(=O)N2CC3(CCN(Cc4n[nH]c5cc(F)ccc45)CC3)C2)cc1C")
"−4%"
>>> value_measured("Cc1ccc(C(=O)N2CC3(CCN(Cc4ccc(F)c(F)c4)CC3)C2)cc1C")
"21%"
>>> value_measured("Cc1ccc(C(=O)N2CC3(CCN(Cc4c[nH]c5cc(F)ccc45)CC3)C2)cc1")
"27%"
>>> value_measured("Cc1ccc(C(=O)N2CC3(CCN(Cc4ccc(Cl)c(Cl)c4)CC3)C2)cc1C")
"24%"

###

assayed.target: human dopamine D4.4 receptor (Homo sapiens)
Sequence (P21917 1-419): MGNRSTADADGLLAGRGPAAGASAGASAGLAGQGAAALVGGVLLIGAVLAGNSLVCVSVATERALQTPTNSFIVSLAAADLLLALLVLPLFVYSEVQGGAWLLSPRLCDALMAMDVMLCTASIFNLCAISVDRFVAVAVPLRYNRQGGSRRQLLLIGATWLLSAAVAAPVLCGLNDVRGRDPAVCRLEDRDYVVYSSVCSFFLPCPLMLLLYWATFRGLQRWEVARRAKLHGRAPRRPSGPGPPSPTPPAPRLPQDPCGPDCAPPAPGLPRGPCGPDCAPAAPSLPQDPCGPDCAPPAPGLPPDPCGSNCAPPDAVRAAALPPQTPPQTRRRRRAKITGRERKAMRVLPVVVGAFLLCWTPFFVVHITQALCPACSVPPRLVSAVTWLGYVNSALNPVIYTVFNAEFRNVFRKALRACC
procedure.details: Human dopamine D4.4 receptor radioligand binding assay (Eurofins)
experimental.endpoint: Ki (nM)

>>> value_measured("Cc1ccc(C(=O)N2CC3(CCN(Cc4cn(C)c5ccccc45)CC3)C2)cc1C [Compound 12]")
76

###

procedure.details: Plasma protein binding, equilibrium dialysis, human plasma
Assay type: in vitro ADME
Documented fu,plasma human (fraction unbound) across a set of compounds
experimental.endpoint: fu,plasma human (fraction unbound)

>>> value_measured("Cc1ccccc1C(=O)N1CC2(CCN(Cc3c[nH]c4cc(F)ccc34)CC2)C1")
0.19
>>> value_measured("O=C(c1ccc2c(c1)OCO2)N1CC2(CCN(Cc3c[nH]c4cc(F)ccc34)CC2)C1")
0.10
>>> value_measured("Cc1cccc(C(=O)N2CC3(CCN(Cc4c[nH]c5cc(F)ccc45)CC3)C2)c1")
0.06
>>> value_measured("Cc1ccc(C(=O)N2CC3(CCN(Cc4ccc(F)c(F)c4)CC3)C2)cc1C")
0.01
>>> value_measured("Cc1ccc(C(=O)N2CC3(CCN(Cc4c[nH]c5cc(F)ccc45)CC3)C2)cc1")
0.05

// data source = paper PMC11191600
